- target_or_system: Potassium voltage-gated channel subfamily KQT member 2 (Rattus norvegicus)
- measurement_protocol: KCNQ2 potentiation in CHO cells – cell-based, FluxOR thallium flux, counter-screen for hERG block protector project, confirmation (AID 1942);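 further: normalized value minus buffer-control mean plus three SD of buffer wells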
- condition_label: FluxOR thallium flux fluorescence, at 10 µM, hits give high values
Out of some 2,400 compounds screened, about 580 (24%) were called active. Only a sample is shown.
Catalogue of molecules with associated activity change, less the hit threshold
endpoint_label: activity change, less the hit threshold

molecule	target_or_system	readout_value
O=C(COc1ccc(Cl)cc1Cl)Nc1cccnc1	Potassium voltage-gated channel subfamily KQT member 2 (Rattus norvegicus)	-20.4% (inactive)
CCc1nc2sc3c(c2c(=S)[nH]1)CC(C)(C)OC3	Potassium voltage-gated channel subfamily KQT member 2 (Rattus norvegicus)	-13.3% (inactive)
COc1cc(S(=O)(=O)Nc2c(C)cc(C)cc2C)ccc1Cl	Potassium voltage-gated channel subfamily KQT member 2 (Rattus norvegicus)	-20.6% (inactive)
CSc1nc(C)c2c(n1)N(c1ccc(C(C)C)cc1)CC2	Potassium voltage-gated channel subfamily KQT member 2 (Rattus norvegicus)	-17.3% (inactive)
COc1ccccc1-n1cnc2sc(C)c(C)c2c1=O	Potassium voltage-gated channel subfamily KQT member 2 (Rattus norvegicus)	-17.7% (inactive)
Cc1ccc(-n2ncc3c2CCCC3NC(=O)c2csnn2)cc1C (stereo unspecified)	Potassium voltage-gated channel subfamily KQT member 2 (Rattus norvegicus)	-24.7% (inactive)
